Entry source: ChEMBL document CHEMBL4177696

system: Staphylococcus aureus; test: Antibacterial activity against Staphylococcus aureus measured after 24 hrs; assay type: functional
metric.name: log10 MIC (log10 of the value in µg/mL)

* C=C1C(=O)CC[C@]2(C)c3cccc(OC)c3CC[C@@H]12 | 0.49
* COC(=O)[C@]1(C)CCC[C@]2(C)c3ccc(C(C)C)c(NC(=O)Cn4cc(-c5ccc6ccccc6c5)nn4)c3CC[C@@H]12 | 1.88
* C=C1C(=O)CC[C@]2(C)c3ccc(C(C)C)c(OC)c3CC[C@@H]12 | 1.40
* CC(C)c1ccc2c(c1O)CC[C@H]1C3=C(CC[C@]21C)C(=O)OC3 [TRIPTOPHENOLIDE] | 1.88
* COc1cccc2c1CC[C@H]1C3=C(CC[C@]21C)C(=O)OC3 | 2.00
* COC(=O)[C@]1(C)CCC[C@]2(C)c3ccc(C(C)C)c(NC(=O)Cn4cc(-c5ccc(OC)cc5)nn4)c3CC[C@@H]12 | 0.80
* COc1c(C(C)C)ccc2c1CC[C@H]1[C@H]3COC(=O)[C@@]3(O)CC[C@]21C | 1.88
* COC(=O)[C@]1(C)CCC[C@]2(C)c3ccc(C(C)C)c(NC(=O)Cn4cc(-c5cccc(F)c5)nn4)c3CC[C@@H]12 | 1.10

====

Listed next: entries and their corresponding CC50 at 72 h.
assay: Cytotoxicity against HFF measured after 72 hrs by MTT assay; assay type: cell-based; settings: human, HFF cells
metric.name: CC50 at 72 h

• CCOCO[C@]12CCC[C@]3(CO1)c1ccc(C(C)C)c(OC)c1CC[C@@H]23 = 8.2 µg/mL
• COc1cccc2c1CC[C@H]1[C@H]3COC(=O)[C@@]3(O)C(=O)C[C@]21C = > 50 µg/mL
• COC(=O)[C@]1(C)CCC[C@]2(C)c3ccc(C(C)C)c(NC(=O)Cn4cc(-c5cccc(NC(C)=O)c5)nn4)c3CC[C@@H]12 = 12.2 µg/mL
• COc1cccc2c1CC[C@H]1[C@H]3COC(=O)C3=CC[C@]21C = 25.2 µg/mL

====

assay: Cytotoxicity against HFF measured after 72 hrs by MTT assay; type: cell-based; conditions: human, HFF cells
metric.name: CC50 at 72 h (µg/mL)

* COC(=O)[C@]1(C)CCC[C@]2(C)c3ccc(C(C)C)c(NC(=O)Cn4cc(-c5cncnc5)nn4)c3CC[C@@H]12 | 41.8
* COC(=O)[C@]1(C)CCC[C@]2(C)c3ccc(C(C)C)c(NC(=O)Cn4cc(-c5cccnc5)nn4)c3CC[C@@H]12 | 48.2
* COc1c(C(C)C)ccc2c1[C@H](O)C=C1C3=C(CCC12C)C(=O)OC3 (single isomer, unassigned) | 9.2
* C=C1C(=O)CC[C@]2(C)c3cccc(OC)c3CC[C@@H]12 | 9.1
* CCOCOC[C@]12CCC(=C(SC)SC)C(=O)[C@@H]1CCc1c2ccc(C(C)C)c1OC | 11.4

====

system: Staphylococcus aureus; experiment: Antibacterial activity against Staphylococcus aureus measured after 24 hrs; assay type: functional
Labelling field: enter true if recorded MIC is less than 20 µg/mL. Enter false if it equals or exceeds that cut-off.

* COc1c(C(C)C)ccc2c1CC[C@H]1[C@@H](O)CCC[C@]21CO[N+](=O)[O-] | false
* NCC[C@H](O)C(=O)N[C@@H]1C[C@H](N)[C@@H](O[C@H]2O[C@H](CN)[C@@H](O)[C@H](O)[C@H]2O)[C@H](O)[C@H]1O[C@H]1O[C@H](CO)[C@@H](O)[C@H](N)[C@H]1O.O=S(=O)(O)O.O=S(=O)(O)O [AMIKACIN SULFATE] | true
* C=C1[C@@H]2CCc3c(ccc(C(C)C)c3OC)[C@@]2(C)CC[C@@]1(O)CO | false
* COC(=O)[C@]1(C)CCC[C@]2(C)c3ccc(C(C)C)c(NC(=O)Cn4cc(-c5cccc([N+](=O)[O-])c5)nn4)c3CC[C@@H]12 | false
* COC(=O)[C@]1(C)CCC[C@]2(C)c3ccc(C(C)C)c(NC(=O)Cn4cc(-c5ccncc5)nn4)c3CC[C@@H]12 | true
* CCOCO[C@]12CCC[C@]3(CO1)c1ccc(C(C)C)c(OC)c1CC[C@@H]23 | true
* CCn1cc(C(=O)O)c(=O)c2cc(F)c(N3CCNCC3)cc21 [NORFLOXACIN] | true
